Source of measurements: paper PMC12589998

Entries annotated with measured half-life
assay: Pharmacokinetic study in rats after oral administration of OS extract (UHPLC-QqQ-MS/MS of plasma); format: in vivo, rat; conditions: male; rat plasma, oral 3 g/kg OS extract, n = 6, mean ± SD; read-out: T1/2 (converted)
Only the number, expressed in h, is required.

Take a look at these entries with their results.
1. O=C(O)[C@H]1O[C@@H](Oc2cc(O)c3c(=O)cc(-c4ccccc4)oc3c2)[C@H](O)[C@@H](O)[C@@H]1O [Chrysin-7-O-β-D-glucuronide, chrysin-7-O-β-D-glucuronide]: 4.79
2. O=C(O)[C@H]1O[C@@H](Oc2cc3oc(-c4ccccc4)cc(=O)c3c(O)c2O)[C@H](O)[C@@H](O)[C@@H]1O: 9.14
3. O=c1cc(-c2ccccc2)oc2cc(O[C@@H]3O[C@H](CO)[C@@H](O)[C@H](O)[C@H]3O)c(O)c(O)c12: 3.42
4. O=c1cc(-c2ccc(O)cc2)oc2cc(O)c(O)c(O)c12: 4.07
5. COc1c(O[C@@H]2O[C@H](C(=O)O)[C@@H](O)[C@H](O)[C@H]2O)cc2oc(-c3ccccc3)cc(=O)c2c1O [Oroxylin A-7-O-β-D-glucuronide, oroxylin A-7-O-β-D-glucuronide]: 7.22
6. O=c1cc(-c2ccccc2)oc2cc(O)c(O)c(O)c12: 2.99

Ask | So what does the record say about half-life for `O=c1cc(-c2ccccc2)oc2cc(O[C@@H]3O[C@H](CO[C@@H]4O[C@H](CO)[C@@H](O)[C@H](O)[C@H]4O)[C@@H](O)[C@H](O)[C@H]3O)c(O)c(O)c12` ?
Reply | 3.97

* * *

assay: Stability of the analytes in rat plasma samples under storage conditions; type: physicochemical; conditions: spiked concentration 6400 ng/mL, n = 6
Readout kind: Measured, Room temperature for 4 h (ng/mL)
Answer with a number only, understood to be in ng/mL.

Here's what some known entries look like.
1. O=c1cc(-c2ccccc2)oc2cc(O[C@@H]3O[C@H](CO)[C@@H](O)[C@H](O)[C@H]3O)c(O)c(O)c12 [Oroxin A, oroxin A]: 6516.27
2. O=c1cc(-c2ccccc2)oc2cc(O[C@@H]3O[C@H](CO[C@@H]4O[C@H](CO)[C@@H](O)[C@H](O)[C@H]4O)[C@@H](O)[C@H](O)[C@H]3O)c(O)c(O)c12 [Oroxin B, oroxin B]: 6564.94
3. O=C(O)[C@H]1O[C@@H](Oc2cc(O)c3c(=O)cc(-c4ccccc4)oc3c2)[C@H](O)[C@@H](O)[C@@H]1O [Chrysin-7-O-β-D-glucuronide, chrysin-7-O-β-D-glucuronide]: 6145.55

Ask | For O=c1cc(-c2ccccc2)oc2cc(O)c(O)c(O)c12 [Baicalein, baicalein] , what is its reported Measured, Room temperature for 4 h?
Reply | 6247.34

* * *

test: Pharmacokinetic study in rats after oral administration of OS extract (UHPLC-QqQ-MS/MS of plasma); type: in vivo, rat; details: male; rat plasma, oral 3 g/kg OS extract, n = 6, mean ± SD; read-out: Cmax
Reported Cmax values for a set of compounds
Your answer is read as ng/mL, so omit the unit and give the number.

1. O=c1cc(-c2ccc(O)cc2)oc2cc(O)c(O)c(O)c12: 47.8

Ask | Using the record for `O=c1cc(-c2ccccc2)oc2cc(O[C@@H]3O[C@H](CO)[C@@H](O)[C@H](O)[C@H]3O)c(O)c(O)c12` , report its Cmax.
Reply | 2890

Ask | Can you look up the measured Cmax of COc1c(O[C@@H]2O[C@H](C(=O)O)[C@@H](O)[C@H](O)[C@H]2O)cc2oc(-c3ccccc3)cc(=O)c2c1O [Oroxylin A-7-O-β-D-glucuronide, oroxylin A-7-O-β-D-glucuronide] for me?
Reply | 912

Ask | Any idea what Cmax was measured for `O=c1cc(-c2ccccc2)oc2cc(O)c(O)c(O)c12` ?
Reply | 2930
